# METHOD: Cytotoxicity colorimetric assay, NIH/3T3
# Assay type: cell-based, mouse
# REPORTED_CONDITIONS: mouse, NIH/3T3 cells, one hour in serum-free media
REPORTED_METRIC: EC50 at 1 h (µg/mL)
Give the value, in units of µg/mL, as a plain number.

Fill in reported EC50 at 1 h for this entry: `COc1cc(OC)c(C(=O)Nc2ccc(NC(=O)c3ccc(OCCCCCN)cc3OCCCCCN)cc2)cc1C(=O)Nc1ccc(NC(=O)c2ccc(OCCCCCN)cc2OCCCCCN)cc1`
86

Fill in EC50 at 1 h for record `COc1cc(OC)c(C(=O)Nc2ccc(NC(=O)c3cc(C(=O)NCCN(C)C)c(OCCCCCN)cc3OCCCCCN)cc2)cc1C(=O)Nc1ccc(NC(=O)c2cc(C(=O)NCCN(C)C)c(OCCCCCN)cc2OCCCCCN)cc1`
97.5

----------
Answer each item with its documented EC50.
# Test system: UFH
# METHOD: FXa amidolytic assay (Example 10), UFH
# REPORTED_CONDITIONS: read-out: Heparin FXa uM EC50; UFH 0.03 units/mL; human antithrombin, bovine Factor Xa
Starred links: 1 amine or outer side, 2 acyl side, 3 side chain; linkers in the order of their positions; H or OH if unused. Non-standard residues stand in square brackets, D forms with d. Residues, ends and D or L forms follow the SMILES beside them. *: point of attachment. NH(3-CONH2-4-OMe-phenyl) = COc1ccc(N*)cc1C(N)=O; 3Abz(6-OMe) = COc1ccc(N[*:1])cc1C(=O)[*:2]; X1 = O=C(O)COc1ccc(N[*:1])cc1C(=O)[*:2]
Number only, in µM; omit the unit.

Supply reported EC50 belonging to this compound: COc1ccc(NC(=O)[C@H](CCCCN)NC(=O)c2cc(NC(=O)[C@H](CCCCN)NC(=O)c3cc(NC(=O)[C@H](CCCCN)NC(=O)c4cc(NC(=O)[C@H](CCCCN)NC(=O)[C@@H](N)Cc5c[nH]c6ccccc56)ccc4OC)ccc3OC)ccc2OCC(=O)O)cc1C(N)=O [Compound 352] (H-WK[3Abz(6-OMe)]K[3Abz(6-OMe)]K[X1]K-{NH(3-CONH2-4-OMe-phenyl)})
0.287

Could you please provide reported EC50 for `COC(=O)c1cccc(C(=O)N[C@@H](CCCCN)C(=O)Nc2ccc(OC)c(C(=O)N[C@@H](CCCCN)C(=O)Nc3ccc(OC)c(C(=O)N[C@@H](CCCCN)C(=O)Nc4ccc(OC)c(C(=O)N[C@@H](CCCCN)C(=O)Nc5ccc(OC)c(C(N)=O)c5)c4)c3)c2)c1` ? Thanks!
0.292

Give me measured EC50, please, for this compound: `NCCCC[C@H](NC(=O)c1cccc(NC(=O)[C@H](CCCCN)NC(=O)c2cccc(NC(=O)[C@H](CCCCN)NC(=O)c3cccc(NC(=O)[C@@H](N)CCCCN)c3)c2)c1)C(=O)Nc1cccc(C(N)=O)c1`
3.69

----------
# Tested on: NIH/3T3 cells
# METHOD: Cytotoxicity colorimetric assay, NIH/3T3
# Type: cell-based, mouse
# REPORTED_CONDITIONS: at the concentration given
# Procedure: This assay measures the bioreduction of a novel tetrazolium compound to a soluble formazan product by viable cells. HepG2 cells were seeded in 96 well plates at 3×10^4 cells/well in MEM medium with 10% fetal bovine serum (FBS) 24 hours prior to use. […] After incubation, the media was replaced with serum supplemented media and live cells were measured using the Cell Titer 96 Aqueous […] Assay kit (Promega, Madison, Wis.). […]
REPORTED_METRIC: Cytotoxicity 3T3, percent printed in parentheses after the concentration
Kindly write the number and append the unit.

Dear colleague, please send me the reported Cytotoxicity 3T3, percent printed in parentheses after the concentration for `COc1ccc(NC(=O)[C@H](CCCNC(=N)N)NC(=O)c2cc(NC(=O)[C@H](CCCNC(=N)N)NC(=O)c3cc(NC(=O)[C@H](CCCNC(=N)N)NC(=O)c4cc(NC(=O)[C@@H](N)CCCNC(=N)N)ccc4OC)ccc3OC)ccc2OCC(=O)O)cc1C(N)=O` when you can.
50%

Read the entry `COc1ccc(NC(=O)[C@@H](CCCNC(=N)N)NC(=O)c2cc(NC(=O)[C@@H](CCCNC(=N)N)NC(=O)c3cc(NC(=O)[C@@H](CCCNC(=N)N)NC(=O)c4cc(NC(=O)[C@H](N)CCCNC(=N)N)ccc4OC)ccc3OC)ccc2OCC(=O)O)cc1C(=O)N[C@H](Cc1c[nH]c2ccccc12)C(N)=O` and write its reported Cytotoxicity 3T3, percent printed in parentheses after the concentration.
50%

Give the reported value of Cytotoxicity 3T3, percent printed in parentheses after the concentration for this record: `COC(=O)c1cccc(C(=O)N[C@@H](CCCCN)C(=O)Nc2ccc(OC)c(C(=O)N[C@@H](CCCCN)C(=O)Nc3ccc(OC)c(C(=O)N[C@@H](CCCCN)C(=O)Nc4ccc(OC)c(C(=O)N[C@@H](CCCCN)C(=O)Nc5ccc(OC)c(C(N)=O)c5)c4)c3)c2)c1`
60%

Give Cytotoxicity 3T3, percent printed in parentheses after the concentration for the following molecule: `COc1ccc(NC(=O)[C@H](CCCNC(=N)N)NC(=O)c2cc(NC(=O)[C@H](CCCNC(=N)N)NC(=O)c3cc(NC(=O)[C@H](CCCNC(=N)N)NC(=O)c4cc(NC(=O)[C@@H](N)CCCNC(=N)N)ccc4OC)ccc3OC)ccc2OCC(=O)O)cc1C(=O)N[C@@H](Cc1c[nH]c2ccccc12)C(N)=O`
50%

In one line, give reported Cytotoxicity 3T3, percent printed in parentheses after the concentration of the entry `COc1ccc(NC(=O)[C@H](CCCNC(=N)N)NC(=O)c2cc(NC(=O)[C@H](CCCNC(=N)N)NC(=O)c3cc(NC(=O)[C@H](CCCNC(=N)N)NC(=O)c4cc(NC(=O)[C@@H](N)CCCNC(=N)N)ccc4OC)ccc3OC)ccc2OC)cc1C(=O)N[C@@H](Cc1c[nH]c2ccccc12)C(=O)O` .
50%

----------
Could you please report measured UFH (aPTT) EC50 for the items listed next?
# Test system: unfractionated heparin (UFH)
# METHOD: aPTT clotting assay, UFH 0.2 U/mL in plasma (Example 7)
# Assay type: biochemical
# REPORTED_CONDITIONS: UFH 0.2 U/mL in plasma
Starred links: 1 amine or outer side, 2 acyl side, 3 side chain; linkers in the order of their positions; H or OH if unused. Non-standard residues stand in square brackets, D forms with d. Residues, ends and D or L forms follow the SMILES beside them. *: point of attachment. NH(3-CONH2-4-OMe-phenyl) = COc1ccc(N*)cc1C(N)=O; 3Abz(6-OMe) = COc1ccc(N[*:1])cc1C(=O)[*:2]
Report only the number, with the unit µg/mL understood.

Using known records, supply UFH (aPTT) EC50 for COc1ccc(NC(=O)[C@@H](CCCNC(=N)N)NC(=O)c2cc(NC(=O)[C@@H](CCCNC(=N)N)NC(=O)c3cc(NC(=O)[C@H](C)NC(=O)[C@@H](CCCNC(=N)N)NC(=O)c4cc(NC(=O)[C@H](N)CCCNC(=N)N)ccc4OC)ccc3OC)ccc2OC)cc1C(N)=O [Compound 73] (H-[dR][3Abz(6-OMe)][dR]A[3Abz(6-OMe)][dR][3Abz(6-OMe)][dR]-{NH(3-CONH2-4-OMe-phenyl)})
5.16

For the molecule `COc1ccc(NC(=O)[C@@H](CCCNC(=N)N)NC(=O)c2cc(NC(=O)[C@@H](CCCNC(=N)N)NC(=O)c3cc(NC(=O)[C@@H](CCCNC(=N)N)NC(=O)c4cc(NC(=O)[C@H](N)Cc5c[nH]c6ccccc56)ccc4OC)ccc3OC)ccc2OC)cc1C(N)=O` , give its reported UFH (aPTT) EC50.
2.58

----------
# Tested on: unfractionated heparin (UFH)
# METHOD: aPTT clotting assay, UFH 0.2 U/mL in plasma (Example 7)
# Assay type: biochemical
# REPORTED_CONDITIONS: UFH 0.2 U/mL in plasma
In plain terms, low UFH (aPTT) EC50, meaning strictly below 3 µg/mL, gives 1, and everything else gives 0.

Below 3 µg/mL on UFH (aPTT) EC50? Entry COc1ccc(C(=O)N[C@@H](CCCCN)C(=O)Nc2ccc(OC)c(C(=O)N[C@@H](CCCCN)C(=O)Nc3ccc(OC)c(C(=O)N[C@@H](CCCCN)C(=O)Nc4ccc(OC)c(C(N)=O)c4)c3)c2)cc1NC(=O)[C@@H](N)CCCCN [Compound 99]
1

State whether 3 µg/mL exceeds UFH (aPTT) EC50 recorded for COc1ccc(NC(=O)[C@H](CCCCN)NC(=O)c2cc(NC(=O)[C@H](CCCNC(N)=O)NC(=O)c3cc(NC(=O)[C@H](CCCCN)NC(=O)c4cc(NC(=O)[C@@H](N)CCCCN)ccc4OC)ccc3OC)ccc2OC)cc1C(N)=O [Compound 139] .
1

Threshold test, UFH (aPTT) EC50 < 3 µg/mL: COc1ccc(NC(=O)[C@H](CCCNC(N)=O)NC(=O)c2cc(NC(=O)[C@H](CCCCN)NC(=O)c3cc(NC(=O)[C@H](CCCCN)NC(=O)c4cc(NC(=O)[C@@H](N)CCCCN)ccc4OC)ccc3OC)ccc2OC)cc1C(N)=O [Compound 140]
1

Find out if reported UFH (aPTT) EC50 for COc1ccc(NC(=O)[C@H](CCCCN)NC(=O)c2cc(NC(=O)[C@H](CCCCN)NC(=O)c3cc(NC(=O)[C@H](CCCCN)NC(=O)c4cc(NC(=O)[C@@H](N)CCCCN)ccc4OC)ccc3OC)ccc2OC)cc1C(=O)N[C@@H](Cc1ccc(O)cc1)C(=O)O [Compound 112] is less than 3 µg/mL
1

Record COc1ccc(NC(=O)[C@H](CCCCN)NC(=O)c2cc(NC(=O)[C@H](CCCCN)NC(=O)c3cc(NC(=O)[C@H](CCCCN)NC(=O)c4cc(C(=O)NCCCCCN)c(OC)cc4OC)ccc3OC)ccc2OC)cc1C(N)=O [Compound 102] : is its UFH (aPTT) EC50 strictly below 3 µg/mL?
0

Is 3 µg/mL strictly greater than the compound's reported UFH (aPTT) EC50? compound: COc1ccc(NC(=O)[C@@H](CCCN)NC(=O)c2cc(NC(=O)[C@@H](CCCN)NC(=O)c3cc(NC(=O)[C@@H](CCCN)NC(=O)c4cc(NC(=O)[C@H](N)CCCN)ccc4OC)ccc3OC)ccc2OC)cc1C(N)=O [Compound 40]
1

Data origin: patent US20110178104A1
